target: Cholecystokinin receptor type A (Cavia porcellus, UniProt Q63931)
Sequence (Q63931 whole entry): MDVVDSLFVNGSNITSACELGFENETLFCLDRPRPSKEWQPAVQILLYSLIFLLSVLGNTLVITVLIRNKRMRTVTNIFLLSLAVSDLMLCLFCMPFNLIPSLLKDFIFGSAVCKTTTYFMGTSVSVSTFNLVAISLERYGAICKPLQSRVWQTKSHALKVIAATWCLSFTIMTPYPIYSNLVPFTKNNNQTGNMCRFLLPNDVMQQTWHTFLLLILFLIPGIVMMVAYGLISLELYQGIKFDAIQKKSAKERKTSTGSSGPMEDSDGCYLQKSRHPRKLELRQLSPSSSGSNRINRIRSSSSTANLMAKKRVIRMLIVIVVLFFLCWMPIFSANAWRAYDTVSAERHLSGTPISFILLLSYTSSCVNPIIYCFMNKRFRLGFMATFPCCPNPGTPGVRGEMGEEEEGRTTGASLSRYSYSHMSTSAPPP
Where a SMILES comes first, the peptide text is derived from it. [ ]: non-standard residue; d: D form. The star is where a group is joined. Hydrocinnamoyl(4-OSO3H) = O=C(CCc1ccc(OS(=O)(=O)O)cc1)*; X6 = O=C(/C=C/c1ccc(OS(=O)(=O)O)cc1)*; Nle = CCCC[C@H](N)C(=O)O
observed_property: IC50 (nM)
Please reply with the bare figure in nM and do not write the unit itself.

{"compound": "CCCC[C@H](NC(=O)CCc1ccc(OS(=O)(=O)O)cc1)C(=O)NCC(=O)N[C@@H](Cc1c[nH]c2ccccc12)C(=O)N[C@@H](CCCC)C(=O)N[C@@H](CC(=O)O)C(=O)N[C@@H](Cc1ccccc1)C(N)=O", "study_target": "Cholecystokinin receptor type A (Cavia porcellus, UniProt Q63931)", "observed_property": "IC50", "meas_value": 0.77}
{"compound": "CCCC[C@H](NC(=O)[C@H](Cc1c[nH]c2ccccc12)NC(=O)CNC(=O)[C@H](CC(C)C)NC(=O)CCc1ccc(OS(=O)(=O)O)cc1)C(=O)N[C@@H](CC(=O)O)C(=O)N[C@@H](Cc1ccccc1)C(N)=O ({Hydrocinnamoyl(4-OSO3H)}-LGW[Nle]DF-NH2)", "study_target": "Cholecystokinin receptor type A (Cavia porcellus, UniProt Q63931)", "observed_property": "IC50", "meas_value": 0.67}

Now look at this entry.
Quote IC50 with test system Cholecystokinin receptor type A (Cavia porcellus, UniProt Q63931) for CCCC[C@H](NC(=O)/C=C/c1ccc(OS(=O)(=O)O)cc1)C(=O)NCC(=O)N[C@@H](Cc1c[nH]c2ccccc12)C(=O)N[C@@H](CCCC)C(=O)N[C@@H](CC(=O)O)C(=O)N[C@@H](Cc1ccccc1)C(N)=O (X6-[Nle]GW[Nle]DF-NH2)
23

###

biological target: Cholecystokinin receptor type A (Cavia porcellus); test: Evaluated in vitro for maximal stimulatory activity for amylase release relative to CCK-8 in guinea pig tissue
Where a SMILES comes first, the peptide text is derived from it. [ ]: non-standard residue; d: D form. The star is where a group is joined. Hydrocinnamoyl(4-OSO3H) = O=C(CCc1ccc(OS(=O)(=O)O)cc1)*; NMeL = CN[C@@H](CC(C)C)C(=O)O; Nle = CCCC[C@H](N)C(=O)O; Ava = NCCCCC(=O)O
observed_property: EC50
Field note: include the unit after the figure.

Some solved entries appear below for comparison.
{"molecule": "CCCC[C@H](NC(=O)[C@H](Cc1c[nH]c2ccccc12)NC(=O)CN1CC[C@H](NC(=O)CCc2ccc(OS(=O)(=O)O)cc2)C1=O)C(=O)N[C@@H](CC(=O)O)C(=O)N[C@@H](Cc1ccccc1)C(N)=O", "EC50": "71 nM"}
{"molecule": "CCCC[C@H](NC(=O)CCc1ccc(OS(=O)(=O)O)cc1)C(=O)NCC(=O)N[C@@H](Cc1c[nH]c2ccccc12)C(=O)N[C@@H](CCCC)C(=O)N[C@@H](CC(=O)O)C(=O)N[C@@H](Cc1ccccc1)C(N)=O", "EC50": "0.99 nM"}
{"molecule": "CCCC[C@H](NC(=O)[C@H](Cc1c[nH]c2ccccc12)NC(=O)CNC(=O)[C@H](CC(C)C)NC(=O)CCc1ccc(OS(=O)(=O)O)cc1)C(=O)N[C@@H](CC(=O)O)C(=O)N[C@@H](Cc1ccccc1)C(N)=O ({Hydrocinnamoyl(4-OSO3H)}-LGW[Nle]DF-NH2)", "EC50": "0.64 nM"}
{"molecule": "CCCC[C@H](NC(=O)CCc1ccc(OS(=O)(=O)O)cc1)C(=O)NCC(=O)N[C@@H](Cc1c[nH]c2ccccc12)C(=O)N(C)[C@@H](CC(C)C)C(=O)N[C@@H](CC(=O)O)C(=O)N[C@@H](Cc1ccccc1)C(N)=O ({Hydrocinnamoyl(4-OSO3H)}-[Nle]GW[NMeL]DF-NH2)", "EC50": "15 nM"}

Here is another molecule to look at.
Answer with reported EC50 of CC(C)C[C@H](NC(=O)[C@H](Cc1c[nH]c2ccccc12)NC(=O)CCCCNC(=O)CCc1ccc(OS(=O)(=O)O)cc1)C(=O)N[C@@H](CC(=O)O)C(=O)N[C@@H](Cc1ccccc1)C(N)=O ({Hydrocinnamoyl(4-OSO3H)-Ava}-WLDF-NH2)
140 nM
